target: HIV-1 reverse transcriptase, recovered from plasma of HIV-1 infected patients; assay: ExaVir Drug susceptibility assay (RT-based phenotypic), RT recovered from patient plasma; format: biochemical; conditions: read-out: IC50 to ETR; patient sample 2
pIC50: −log10 of the molar value.
Endpoint Name: pIC50

Prompt: Using the record for Cc1cc(C#N)cc(C)c1Oc1nc(Nc2ccc(C#N)cc2)nc(N)c1Br [ETR] , report its pIC50.
Response: < 4.00

----------
biological target: HIV-1 reverse transcriptase, recovered from plasma of HIV-1 infected patients; assay: ExaVir Drug susceptibility assay (RT-based phenotypic), RT recovered from patient plasma; assay type: biochemical; conditions: read-out: IC50 to ETR; patient sample 8a
Endpoint Name: IC50

Prompt: // IC50 lookup, key: Cc1cc(C#N)cc(C)c1Oc1nc(Nc2ccc(C#N)cc2)nc(N)c1Br [ETR]
Response: > 100 µM

----------
molecular target: HIV-1 reverse transcriptase, recovered from plasma of HIV-1 infected patients; assay: ExaVir Drug susceptibility assay (RT-based phenotypic), RT recovered from patient plasma; format: biochemical; conditions: read-out: IC50 to ETR; patient sample 11a
Endpoint Name: pIC50
# pIC50 is unitless: minus log10 of the molar concentration; print number only

Prompt: Which pIC50 value is on record for Cc1cc(C#N)cc(C)c1Oc1nc(Nc2ccc(C#N)cc2)nc(N)c1Br ?
Response: 5.14

----------
biological target: HIV-1 reverse transcriptase, recovered from plasma of HIV-1 infected patients; assay: ExaVir Drug susceptibility assay (RT-based phenotypic), RT recovered from patient plasma; format: biochemical; details: read-out: IC50 to ETR; patient sample 10
Endpoint Name: IC50 (µM)
Numbers only here, please. The scale is µM.

Prompt: // query IC50 value for entry Cc1cc(C#N)cc(C)c1Oc1nc(Nc2ccc(C#N)cc2)nc(N)c1Br
Response: 13.6

----------
target: HIV-1 reverse transcriptase, recovered from plasma of HIV-1 infected patients; experiment: ExaVir Drug susceptibility assay (RT-based phenotypic), RT recovered from patient plasma; type: biochemical; details: read-out: IC50 to ETR; patient sample 3b
Endpoint Name: IC50

Prompt: Quick check: IC50 of Cc1cc(C#N)cc(C)c1Oc1nc(Nc2ccc(C#N)cc2)nc(N)c1Br ?
Response: > 100 µM

----------
target: HIV-1 reverse transcriptase, recovered from plasma of HIV-1 infected patients; assay: ExaVir Drug susceptibility assay (RT-based phenotypic), RT recovered from patient plasma; format: biochemical; conditions: read-out: IC50 to ETR; patient sample 9b
Endpoint Name: IC50 (µM)
# output: bare number, implied unit µM

Prompt: Provide value of IC50 for this record tested with HIV-1 reverse transcriptase, recovered from plasma of HIV-1 infected patients: Cc1cc(C#N)cc(C)c1Oc1nc(Nc2ccc(C#N)cc2)nc(N)c1Br
Response: 9.2

----------
target: HIV-1 reverse transcriptase, recovered from plasma of HIV-1 infected patients; test: ExaVir Drug susceptibility assay (RT-based phenotypic), RT recovered from patient plasma; assay type: biochemical; settings: read-out: IC50 to ETR; patient sample 6
Endpoint Name: IC50

Prompt: Could you tell me which IC50 is on file for Cc1cc(C#N)cc(C)c1Oc1nc(Nc2ccc(C#N)cc2)nc(N)c1Br ?
Response: > 100 µM

----------
Target: HIV-1 reverse transcriptase, recovered from plasma of HIV-1 infected patients
Assay: ExaVir Drug susceptibility assay (RT-based phenotypic), RT recovered from patient plasma
Assay type: biochemical
Settings: read-out: IC50 to ETR, mean ±SD; ten samples considered sensitive (3a, 4, 7, 9a, 11b, 12, 15, 16, 17, 18)
Method: Lysates containing intraviral RT were recovered from plasma using ExaVir Load, version 3 (Cavidi, Uppsala, Sweden). […] The amount of BrdU monophosphate (BrdUMP) incorporated into DNA was detected with an alkaline phosphatase (Ap) conjugated anti-BrdU monoclonal antibody. […] The IC50 values were calculated using the median effect equation [23]. […] In the present study, two reference recombinant RTs, BH10-wild-type and its mutant form L100I, were analysed together with patient samples in each assay. […]
Endpoint Name: pIC50
Recall that pIC50 is obtained by taking minus log10 of the concentration measured in molar.

Prompt: Requested read-out: pIC50. Entry: Cc1cc(C#N)cc(C)c1Oc1nc(Nc2ccc(C#N)cc2)nc(N)c1Br
Response: 5.51
